Recorded values, source patent US20220162310A1.

Molecular target: T1, TIGIT on the TIGIT-overexpressing Jurkat cell line (Jurkat-TIGIT) (Homo sapiens (Human), UniProt Q495A1 22-244)
T1 construct: Jurkat E6.1 cells transfected with 'TIGIT cDNA'; also called TIGIT expressed on the cell surface
T1 sequence: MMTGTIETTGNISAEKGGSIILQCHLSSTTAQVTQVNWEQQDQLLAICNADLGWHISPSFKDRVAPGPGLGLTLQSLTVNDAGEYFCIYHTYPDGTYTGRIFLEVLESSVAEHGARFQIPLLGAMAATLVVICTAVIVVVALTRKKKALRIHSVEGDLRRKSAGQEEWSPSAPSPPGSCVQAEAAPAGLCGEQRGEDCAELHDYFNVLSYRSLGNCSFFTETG
Experiment: competition in flow cytometry: Jurkat-TIGIT cells preloaded with PVR-Fc, then antibody; PVR left on the cells detected with anti-PVR-PE, MFI falls with the antibody concentration; the sheet calls the half-maximal value EC50
measure: EC50 (µg/mL)
Unit µg/mL implied. Number only.

binder: WIN_1B6 (IgG-type anti-TIGIT antibody) (antibody, V domains shown, section 4.2 is headed 'Conversion to IgG4-Type Anti-TIGIT Antibodies') VH: QVQLVQSGAEVKKPGASVKVSCKASGYTFTSYGISWVRQAPGQGLEWMGWISAYNGNTNYAQKLQGRVTMTTDTSTSTAYMELRSLRSDDTAVYYCARAGWEQQLGFDYWGQGTLVTVSS VL: AIQLTQSPSSLSASVGDRVTISCRASQTIRSYLNWYQQKPGKAPKLLIYAASSLQSGVPLRFSGSGSGTDFTLTISSLQPEDFATYYCQQSYSTLPLTFGGGTKVEIKR
units.symbol: µg/mL
EC50: 0.068
--
binder: 1F10 (IgG-type anti-TIGIT antibody) (antibody, V domains shown, section 4.2 is headed 'Conversion to IgG4-Type Anti-TIGIT Antibodies') VH: EVQLVESGGGLVKPGGSLRISCAASGFTFSNYNMIWVRQAPGKGLEWVSSISSSASYIYYADSVKGRFTISRDNAKNSLYLQMNSLRAEDTAVYYCARDEGSRDSWNNGPYYYSGMDVWGQGTTVTVSS VL: AIQMTQSPSSLSASVGDRVTITCRASQSISRYLNWYQHKPGKAPKLLIYGASSLQSGVPSRFRGSGSGTDFTLTISSLQPEDFATYYCQQSYTTPGAFTFGGGTKVEIKR
units.symbol: µg/mL
EC50: 0.38
--
binder: WIN_1D2 (IgG-type anti-TIGIT antibody) (antibody, V domains shown, section 4.2 is headed 'Conversion to IgG4-Type Anti-TIGIT Antibodies') VH: QVQLVQSGAEVKKPGASVKVSCKASGYTFTSYGISWVRQAPGQGLEWMGWISAYNGNTNYAQKLQGRVTMTTDTSTSTAYMELRSLRSDDTAVYYCARAGWEQQLGFDYWGQGTLVTVSS VL: AIQLTQSPSSLSASVGDRVTITCRASQSISSYLNWYQQKPGKAPKLLIYAASSLQSGVPSRFSGSGSGTDFTLTISSLQPEDFATYYCQQSYSTLAITFGQGTRLEIKR
units.symbol: µg/mL
EC50: 0.071

Kindly consider the entry below.
**Query** Entry 1E8 (IgG-type anti-TIGIT antibody) (antibody, V domains shown, section 4.2 is headed 'Conversion to IgG4-Type Anti-TIGIT Antibodies') VH: QVQLVQSGTEVKKPGASVKVSCKASGYTFSSYAITWVRQAPGQGLEWMGWISAYNGNTNYAQKLQGRVTMTTDTSTSTAYMELRSLRSDDTAVYYCARVDFWSGYNYFDYWGQGTLVTVSS VL: DIQMTQSPSSLSASVGDRVTITCRASQGISNYLAWYQQKPGKVPKVLIYAASTLQSGVPSRFSGSGSGTDFTLTISSLQPEDVATYYCQKSNSAPLTFGGGTKVEIKR needs its EC50 filled in; supply it.
**Result** 0.102
